Items are presented alongside their recorded IC50, neutralization of TB40/E infection of HUVEC.
Study system: gH of HCMV strain TB40/E (human cytomegalovirus strain TB40/E)
Experiment description: cell-based or functional assay
Quantity measured: IC50, neutralization of TB40/E infection of HUVEC

Binder	Observed measurement
21E9 (antibody, V domains shown, also called NAb 21E9) VH: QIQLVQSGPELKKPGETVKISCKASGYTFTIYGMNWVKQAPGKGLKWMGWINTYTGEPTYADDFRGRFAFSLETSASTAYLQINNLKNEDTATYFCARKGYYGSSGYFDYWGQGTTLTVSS VL: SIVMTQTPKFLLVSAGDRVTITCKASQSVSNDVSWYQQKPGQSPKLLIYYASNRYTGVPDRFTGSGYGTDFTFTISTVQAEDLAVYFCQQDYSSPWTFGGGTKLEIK	2.37 µg/mL
2-80 (antibody, V domains shown, also called NAb 2-80) VH: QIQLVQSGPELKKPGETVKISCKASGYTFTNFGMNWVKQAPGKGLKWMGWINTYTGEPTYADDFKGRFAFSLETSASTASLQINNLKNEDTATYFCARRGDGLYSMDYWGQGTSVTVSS VL: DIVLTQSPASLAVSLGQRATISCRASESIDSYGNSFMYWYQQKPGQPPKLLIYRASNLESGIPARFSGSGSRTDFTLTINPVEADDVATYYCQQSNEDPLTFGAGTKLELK	1.41 µg/mL
62-11 (antibody, V domains shown, also called NAb 62-11) VH: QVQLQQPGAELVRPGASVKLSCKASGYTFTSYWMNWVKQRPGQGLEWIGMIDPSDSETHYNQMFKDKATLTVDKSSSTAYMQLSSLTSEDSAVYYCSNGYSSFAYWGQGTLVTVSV VL: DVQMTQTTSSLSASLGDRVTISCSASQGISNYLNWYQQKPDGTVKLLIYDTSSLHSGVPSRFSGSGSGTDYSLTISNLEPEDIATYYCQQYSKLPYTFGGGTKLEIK	0.102 µg/mL
62-100 (antibody, V domains shown, also called NAb 62-100) VH: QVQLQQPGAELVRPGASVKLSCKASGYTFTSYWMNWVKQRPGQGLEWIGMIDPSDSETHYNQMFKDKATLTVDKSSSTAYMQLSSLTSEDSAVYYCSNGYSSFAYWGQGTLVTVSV VL: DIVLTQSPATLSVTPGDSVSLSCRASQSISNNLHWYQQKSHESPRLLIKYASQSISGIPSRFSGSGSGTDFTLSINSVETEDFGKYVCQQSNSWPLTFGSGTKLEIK	0.156 µg/mL
18F10 (antibody, V domains shown, also called NAb 18F10) VH: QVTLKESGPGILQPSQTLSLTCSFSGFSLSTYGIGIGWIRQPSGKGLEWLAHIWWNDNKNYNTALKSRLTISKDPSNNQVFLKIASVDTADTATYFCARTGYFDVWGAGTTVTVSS VL: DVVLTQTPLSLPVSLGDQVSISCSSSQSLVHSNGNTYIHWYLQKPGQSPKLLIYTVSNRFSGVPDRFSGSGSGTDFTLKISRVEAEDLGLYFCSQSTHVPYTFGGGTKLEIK	1.49 µg/mL
